System: Trichophyton rubrum
Assay: Antifungal activity against Trichophyton rubrum AUMC 1804 assessed as growth inhibition at 28 degC after 7 days
Format: functional
property-name: diameter of the inhibition zone (DIZ) (mm)
Numbers only, in mm.

Recorded diameter of the inhibition zone (DIZ), per entry:
{"compound": "Cc1nn(-c2ccccc2)c2nc3c(nc12)/C(=N/N=C1/NC(=O)CS1)c1ccccc1-3", "tested-target": "Trichophyton rubrum", "diameter of the inhibition zone (DIZ) (mm)": 12}
{"compound": "Cc1nn(-c2ccccc2)c2nc3c(nc12)/C(=C/c1ccccc1Cl)c1ccccc1-3", "tested-target": "Trichophyton rubrum", "diameter of the inhibition zone (DIZ) (mm)": 10}
{"compound": "CCOC(=O)C1S/C(=N\\N=C2/c3ccccc3-c3nc4c(nc32)c(C)nn4-c2ccccc2)NC1=O (stereo unspecified)", "tested-target": "Trichophyton rubrum", "diameter of the inhibition zone (DIZ) (mm)": 16}
{"compound": "Clc1ccccc1C(c1ccccc1)(c1ccccc1)n1ccnc1 [CLOTRIMAZOLE]", "tested-target": "Trichophyton rubrum", "diameter of the inhibition zone (DIZ) (mm)": 35}
{"compound": "Cc1nn(-c2ccccc2)c2nc3c(nc12)/C(=N/N=c1/[nH]c(-c2ccccc2)cs1)c1ccccc1-3", "tested-target": "Trichophyton rubrum", "diameter of the inhibition zone (DIZ) (mm)": 14}

Moving on to another compound below.
q: Look up diameter of the inhibition zone (DIZ) for this compound: `Cc1nn(-c2ccccc2)c2nc3c(nc12)/C(=N\NC(N)=S)c1ccccc1-3`
a: 14

---

Give zone of inhibition at 20000 µg/mL for every item shown.
Test system: Geotrichum candidum
Test: Antifungal activity against Geotrichum candidum AUMC 226 assessed as diameter of growth inhibition zone at 20 mg/ml at 28 degC after 7 days
Format: functional
Conditions: AUMC 226, 168 h, read-out: DIZ
Please don't drop the unit; write it after the number.

Recorded zone of inhibition at 20000 µg/mL, per entry:
{"compound": "Cc1nn(-c2ccccc2)c2nc3c(nc12)C(=O)c1ccccc1-3", "tested-target": "Geotrichum candidum", "result": "0 mm"}
{"compound": "Cc1nn(-c2ccccc2)c2nc3c(nc12)/C(=N/N=C1/NC(=O)CS1)c1ccccc1-3", "tested-target": "Geotrichum candidum", "result": "10 mm"}
{"compound": "Cc1nn(-c2ccccc2)c2nc3c(nc12)/C(=N\\O)c1ccccc1-3", "tested-target": "Geotrichum candidum", "result": "0 mm"}
{"compound": "CCOC(=O)/C(C#N)=C1\\c2ccccc2-c2nc3c(nc21)c(C)nn3-c1ccccc1", "tested-target": "Geotrichum candidum", "result": "0 mm"}
{"compound": "CCOC(=O)C1S/C(=N\\N=C2/c3ccccc3-c3nc4c(nc32)c(C)nn4-c2ccccc2)NC1=O (stereo unspecified)", "tested-target": "Geotrichum candidum", "result": "10 mm"}
{"compound": "Cc1nn(-c2ccccc2)c2nc3c(nc12)/C(=N/N)c1ccccc1-3", "tested-target": "Geotrichum candidum", "result": "0 mm"}

Your task in this section: give zone of inhibition at 20000 µg/mL for each listed record.
1. Cc1nn(-c2ccccc2)c2nc3c(nc12)/C(=C/c1ccccc1Cl)c1ccccc1-3
2. Cc1nn(-c2ccccc2)c2nc3c(nc12)/C(=N/N=c1/[nH]c(-c2ccccc2)cs1)c1ccccc1-3
3. Cc1nn(-c2ccccc2)c2nc3c(nc12)/C(=N\NC(N)=S)c1ccccc1-3
4. Clc1ccccc1C(c1ccccc1)(c1ccccc1)n1ccnc1 [CLOTRIMAZOLE]
5. Cc1nn(-c2ccccc2)c2nc3c(nc12)Cc1ccccc1-3

a:
0 mm
10 mm
17 mm
26 mm
0 mm

---

Give MIC for every item shown.
Tested on: Aspergillus flavus
Experiment: Antifungal activity against Aspergillus flavus AUMC 3214 assessed as growth inhibition at 28 degC after 7 days
Format: functional
Conditions: Aspergillus flavus, AUMC 3214, 168 h
Numbers only, in µg/mL.

Recorded MIC, per entry:
{"molecule": "Cc1nn(-c2ccccc2)c2nc3c(nc12)/C(=N/N=c1/[nH]c(-c2ccccc2)cs1)c1ccccc1-3", "MIC, µg/mL": 2500}
{"molecule": "CCOC(=O)C1S/C(=N\\N=C2/c3ccccc3-c3nc4c(nc32)c(C)nn4-c2ccccc2)NC1=O (stereo unspecified)", "MIC, µg/mL": 2500}
{"molecule": "Clc1ccccc1C(c1ccccc1)(c1ccccc1)n1ccnc1", "MIC, µg/mL": 150}

Your task in this section: give MIC for each listed record.
1. Cc1nn(-c2ccccc2)c2nc3c(nc12)/C(=N\NC(N)=S)c1ccccc1-3
2. Cc1nn(-c2ccccc2)c2nc3c(nc12)/C(=C/c1ccccc1Cl)c1ccccc1-3

a:
1: 2500; 2: 20000

q: Look up MIC for this molecule: `Cc1nn(-c2ccccc2)c2nc3c(nc12)/C(=N/N=C1/NC(=O)CS1)c1ccccc1-3`
a: 5000

Recorded values, source ChEMBL document CHEMBL2331494.
